// provenance: patent US20050154230A1

Reported IC50 values are given for each entry in this list.
Biological target: human VR1 (Homo sapiens)
Construct: expressed in transfected cells
Experiment: Capsaicin-induced Ca2+ influx in the human VR1-transfected CHO cell line (Assay 1)
Type: cell-based
Conditions: human VR1-CHOluc9aeq cells, 10 nM capsaicin; compound purity about 40 to 90%; read-out: hVR1 class

Example results:
> print(dat)
                                   molecule  observed.measurement
1  O=C(Nc1cc(F)c(F)cc1F)Nc1ccccc1CCO [Example 183]        500 to 1000 nM
2  O=C(Nc1cccc(-c2ccc(F)c(F)c2)c1)Nc1ccccc1CCO [Example 207]              < 100 nM
3  Cc1cccc(C)c1NC(=O)Nc1ccccc1CCO [Example 116]        500 to 1000 nM
4  O=C(Nc1ccc(-c2ccccc2)s1)Nc1ccccc1CCO [Example 243]              < 100 nM

Pending molecule:
// query GET /values?readout=IC50&item= COc1cc(CNC(=O)Nc2c(C)cc(C)cc2C)ccc1O [Example 72]
// result 500 to 1000 nM

* * *

Biological target: human VR1 (Homo sapiens, UniProt Q8NER1)
Construct: expressed in transfected cells
Sequence (Q8NER1 whole entry): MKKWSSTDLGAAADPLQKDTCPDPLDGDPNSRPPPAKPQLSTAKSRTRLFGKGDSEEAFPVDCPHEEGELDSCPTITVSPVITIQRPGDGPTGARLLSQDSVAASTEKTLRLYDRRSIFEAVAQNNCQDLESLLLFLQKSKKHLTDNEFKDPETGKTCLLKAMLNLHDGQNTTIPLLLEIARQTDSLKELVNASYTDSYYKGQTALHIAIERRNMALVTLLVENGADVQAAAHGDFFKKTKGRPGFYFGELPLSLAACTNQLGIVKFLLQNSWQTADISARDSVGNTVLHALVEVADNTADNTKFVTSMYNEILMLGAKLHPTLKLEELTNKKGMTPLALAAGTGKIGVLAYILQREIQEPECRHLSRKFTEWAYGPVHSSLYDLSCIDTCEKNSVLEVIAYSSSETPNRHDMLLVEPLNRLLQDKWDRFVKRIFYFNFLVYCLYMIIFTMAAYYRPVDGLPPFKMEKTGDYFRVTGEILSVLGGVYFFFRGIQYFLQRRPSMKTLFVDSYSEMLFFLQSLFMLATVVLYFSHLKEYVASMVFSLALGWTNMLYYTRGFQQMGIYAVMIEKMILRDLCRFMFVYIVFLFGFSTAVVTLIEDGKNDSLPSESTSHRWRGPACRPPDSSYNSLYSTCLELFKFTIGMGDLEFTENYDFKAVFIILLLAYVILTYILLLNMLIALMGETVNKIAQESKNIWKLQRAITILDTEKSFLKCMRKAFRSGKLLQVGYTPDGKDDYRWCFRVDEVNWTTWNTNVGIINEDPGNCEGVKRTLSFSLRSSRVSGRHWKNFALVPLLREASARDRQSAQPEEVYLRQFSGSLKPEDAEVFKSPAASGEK
Assay: Capsaicin-induced Ca2+ influx in the human VR1-transfected CHO cell line (Assay 1)
Assay type: cell-based
Entries and their IC50 values follow.

Some solved cases for reference:
> print(dat)
                      smiles.representation  readout.name  observed.measurement
1     O=C(Nc1cccc(OC(F)(F)F)c1)Nc1ccccc1CCO          IC50              < 100 nM
2      COc1cc(CNC(=O)Nc2ccc(C(C)C)cc2)ccc1O          IC50              < 100 nM
3  COc1cc(CNC(=O)Nc2ccc(F)c([N+](=O)[O-])c2)ccc1O          IC50         100 to 500 nM
4  COc1cc(CNC(=O)Nc2ccc(Oc3ccccc3)cc2)ccc1O          IC50              < 100 nM
5       COc1cc(CNC(=O)Nc2cccc3ccccc23)ccc1O          IC50              < 100 nM

// query For the compound COc1cc(CNC(=O)Nc2cccc(C)c2)ccc1O , what IC50 is on record?
// result 100 to 500 nM

// query Which IC50 value belongs to N#Cc1ccc(NC(=O)Nc2ccccc2CCO)cc1C(F)(F)F ?
// result < 100 nM

* * *

Biological target: human VR1 (Homo sapiens, UniProt Q8NER1)
Construct: expressed in transfected cells
Test: Capsaicin-induced Ca2+ influx in the human VR1-transfected CHO cell line (Assay 1)
Format: cell-based
Details: human VR1-CHOluc9aeq cells, 10 nM capsaicin; compound purity about 40 to 90%; read-out: hVR1 class
readout.name: IC50

# annotated cases, reported IC50 shown
> print(dat)
                                  compound                          target.or.system  observed.measurement
1         COc1ccc(NC(=O)Nc2ccccc2CCO)cc1OC  human VR1 (Homo sapiens, UniProt Q8NER1)        500 to 1000 nM
2        COc1cc(CNC(=O)Nc2cccc(SC)c2)ccc1O  human VR1 (Homo sapiens, UniProt Q8NER1)         100 to 500 nM
3       COc1cc(CNC(=O)NCc2ccc(Br)cc2)ccc1O  human VR1 (Homo sapiens, UniProt Q8NER1)         100 to 500 nM
4  O=C(Nc1ccc(F)c(C(F)(F)F)c1)Nc1ccccc1CCO  human VR1 (Homo sapiens, UniProt Q8NER1)              < 100 nM
5      Cc1cc(C)c(NC(=O)Nc2ccccc2CCO)c(C)c1  human VR1 (Homo sapiens, UniProt Q8NER1)        500 to 1000 nM

// query Param item = CSc1ccc(NC(=O)Nc2ccccc2CCO)cc1 ; retrieve measured IC50.
// result 500 to 1000 nM

// query Form field: reported IC50 of Cc1ccccc1CNC(=O)Nc1ccccc1CCO
// result 500 to 1000 nM

// query // IC50 lookup, key: O=C(Nc1ccc(Oc2ccccc2)cc1)N1CCc2ccc(S(=O)(=O)N3CCN(CCO)CC3)cc2C1
// result 500 to 1000 nM

// query Which IC50 is reported for this compound? CC(C)c1cccc(C(C)C)c1NC(=O)Nc1ccccc1CCO
// result 500 to 1000 nM

// query Any idea what its IC50 is? The compound is O=C(Nc1cccc(-c2cccs2)c1)Nc1ccccc1CCO
// result < 100 nM

// query I'd like to know its IC50. The compound in question is O=C(Nc1cccc(-c2ccc([N+](=O)[O-])cc2)c1)Nc1ccccc1CCO
// result < 100 nM

// query Value lookup for IC50; key = CN(C)S(=O)(=O)c1ccc2c(c1)CN(C(=O)Nc1ccc(Oc3ccccc3)cc1)CC2
// result 500 to 1000 nM

// query // lookup IC50 for O=C(Nc1cccc(-c2ccc(C(F)(F)F)cc2)c1)Nc1ccccc1CCO
// result < 100 nM

// query // IC50 lookup, key: O=C(Nc1ccc(C(F)(F)F)cc1)Nc1ccccc1CCO
// result 100 to 500 nM

// query Reported IC50, compound COc1cc(CNC(=O)Nc2ccc(C)cc2C)ccc1O : ____
// result 500 to 1000 nM
